Experimental Target: GST-Xa-hAAK1 (Homo sapiens, UniProt Q2M2I8)
Construct: made in house
Sequence (Q2M2I8 whole entry): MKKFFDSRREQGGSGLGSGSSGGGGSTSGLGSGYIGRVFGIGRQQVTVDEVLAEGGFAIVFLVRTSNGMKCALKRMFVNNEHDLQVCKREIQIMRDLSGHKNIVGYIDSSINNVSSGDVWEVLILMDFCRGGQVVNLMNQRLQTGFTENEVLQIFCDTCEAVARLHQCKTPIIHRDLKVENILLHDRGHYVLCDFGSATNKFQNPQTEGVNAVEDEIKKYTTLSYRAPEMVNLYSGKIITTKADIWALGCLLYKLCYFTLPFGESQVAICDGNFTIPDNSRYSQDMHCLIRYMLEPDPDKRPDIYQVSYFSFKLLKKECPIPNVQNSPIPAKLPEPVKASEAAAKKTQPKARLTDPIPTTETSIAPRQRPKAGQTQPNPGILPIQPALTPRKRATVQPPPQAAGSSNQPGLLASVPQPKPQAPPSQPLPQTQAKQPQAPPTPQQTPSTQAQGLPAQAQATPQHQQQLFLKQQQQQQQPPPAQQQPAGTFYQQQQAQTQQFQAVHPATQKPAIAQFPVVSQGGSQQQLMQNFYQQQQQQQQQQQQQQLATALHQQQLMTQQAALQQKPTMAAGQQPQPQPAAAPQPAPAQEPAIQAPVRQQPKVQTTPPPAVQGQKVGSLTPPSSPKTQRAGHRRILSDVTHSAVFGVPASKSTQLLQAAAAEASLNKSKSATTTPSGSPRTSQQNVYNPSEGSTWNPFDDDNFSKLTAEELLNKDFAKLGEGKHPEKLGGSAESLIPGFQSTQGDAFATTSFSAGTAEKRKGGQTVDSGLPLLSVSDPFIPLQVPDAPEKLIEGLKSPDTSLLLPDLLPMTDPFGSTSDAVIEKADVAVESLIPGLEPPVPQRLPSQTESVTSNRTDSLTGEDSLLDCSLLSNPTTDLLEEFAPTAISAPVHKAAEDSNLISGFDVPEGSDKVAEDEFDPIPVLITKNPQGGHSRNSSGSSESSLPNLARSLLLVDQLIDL
Measurement Description: AAK1 Kinase Assay
Format: biochemical
Test Parameters: IC50 (nM), ATP 22 μM; 3 hours at room temperature; Caliper LabChip 3000
Task for the reader: assign each of the following molecules its reported IC50.
Answers are plain numbers, in nM.

# example entries with known answers
- Molecule: "COc1cc(NC(=O)C(CC(C)C)N2CCC(N)C2)ccc1-c1cnco1 (stereo not drawn) [Example 30]"
  Meas Value: 590
- Molecule: "CCN(C(=O)[C@H](N)CC(C)C)c1ccc(-c2cnco2)c(OC)c1 [Example 10]"
  Meas Value: 5010

Would you be so kind as to report IC50 for each listed record?
1. COc1cc(NC(=O)[C@@H](CC(C)C)NCc2ccc(Cl)cc2)ccc1-c1cnco1 [Example 60]
2. COc1cc(NC(=O)[C@@H](CC(C)C)NCc2ccsc2)ccc1-c1cnco1 [Example 65]
3. COc1cc(NC(=O)C(CC(C)C)NC2CNC2)ccc1-c1cnco1 (stereo not drawn) [Example 32]
4. CC(C)C[C@@H](N)C(=O)Nc1ccc(-c2cnco2)c(Br)c1 [Example 12]

1. 210
2. 370
3. 1140
4. 55

* * *

Experimental Target: GST-Xa-hAAK1 (Homo sapiens)
Construct: made in house
Measurement Description: AAK1 Kinase Assay
Assay type: biochemical
Test Parameters: IC50 (nM), ATP 22 μM; 3 hours at room temperature; Caliper LabChip 3000
Property Measured: log10 of IC50 (log10 of the value in nM)
Hi team, quick reminder: these entries are log10 of IC50 (nM).

- Molecule: "CC(C)C[C@@H](N)C(=O)Nc1ccc(-c2ccncc2)cc1-c1ccsc1"
  Meas Value: 2.70
- Molecule: "COc1cc(NC(=O)[C@H](N)CC(C)C)c(C#N)cc1-c1cnco1"
  Meas Value: 1.40
- Molecule: "COc1c(-c2cnco2)cc(Cl)c(NC(=O)[C@H](N)CC(C)C)c1Cl"
  Meas Value: 2.54
- Molecule: "CC(C)C[C@@H](N)C(=O)Nc1ccc(-c2cnco2)c(OC(F)(F)F)c1"
  Meas Value: 2.20

Now, please, on to the next compound.
Find the recorded log10 of IC50 belonging to CC(C)C[C@@H](N)C(=O)Nc1ccc(-c2cnco2)c(-c2ccsc2)c1 and report it.
3.14

* * *

Experimental Target: GST-Xa-hAAK1 (Homo sapiens)
Construct: made in house
Measurement Description: AAK1 Kinase Assay
Format: biochemical
Test Parameters: IC50 (nM), ATP 22 μM; 3 hours at room temperature; Caliper LabChip 3000
Protocol: The assays were performed in U-bottom 384-well plates. […] The reactions were initiated by the combination of bacterially expressed, GST-Xa-hAAK1 with substrates and test compounds. […] The reactions were analyzed on the Caliper LabChip 3000 (Caliper, Hopkinton, Mass.) by electrophoretic separation of the fluorescent substrate and phosphorylated product. […] Compounds were dissolved at 10 mM in dimethylsulfoxide (DMSO) and evaluated at eleven concentrations. […]
Property Measured: IC50

Example compounds with recorded IC50:
- Compound: "COc1cc(NC(=O)C(N)CCC(C)C)ccc1-c1cnco1 (centres unmarked)"
  IC50: "90 nM"
- Compound: "COc1cc(NC(=O)[C@@H](CC(C)C)NS(=O)(=O)Cc2ccccc2)ccc1-c1cnco1"
  IC50: "1300 nM"
- Compound: "COc1cc(NC(=O)C2NCCC2C(C)C)ccc1-c1cnco1 (single isomer, unassigned) [Example 37]"
  IC50: "8 nM"
- Compound: "COc1cc(NC(=O)C(N)CC(C)C)ccc1-c1cnco1 (centres unmarked)"
  IC50: "64 nM"
- Compound: "COc1cc(NC(=O)C(CN)CC(C)C)ccc1-c1cnco1 (centres unmarked)"
  IC50: "83 nM"
- Compound: "COc1cc(NC(=O)[C@H](N)C2CCCC2)c(F)cc1-c1cnco1"
  IC50: "530 nM"
- Compound: "COc1cc(NC(=O)[C@H](N)CC(C)C)ccc1-c1cncs1"
  IC50: "275 nM"
- Compound: "COc1cc(NC(=O)[C@H](N)CCSC)ccc1-c1cnco1"
  IC50: "720 nM"
- Compound: "COc1cc(NC(=O)[C@H](N)CC(C)C)ccc1-c1cnc2cccnn12"
  IC50: "2200 nM"
- Compound: "COc1cc(-c2cnco2)c(F)cc1NC(=O)[C@H](N)CC(C)C"
  IC50: "84 nM"

Could you tell me IC50 for each of these compounds? They are listed below.
1. CCS(=O)(=O)N[C@H](CC(C)C)C(=O)Nc1ccc(-c2cnco2)c(OC)c1
2. COc1cc(NC(=O)[C@@H](CC(C)C)NCc2sccc2C)ccc1-c1cnco1
3. CC(C)C[C@@H](N)C(=O)Nc1ccc(-c2cnco2)c(O)c1
4. COc1cc(NC(=O)[C@H](N)CC2CC2)ccc1-c1cnco1
5. COc1cc(NC(=O)[C@H]2C[C@H](F)CN2)ccc1-c1cnco1
6. COc1cc(NC(=O)C(CC(C)C)N2CCC(N)CC2)ccc1-c1cnco1 (centres unmarked)
7. COc1cc(NC(=O)C2NCCC2C(C)C)ccc1-c1cnco1 (single isomer, unassigned) [Example 38]

1. 280 nM
2. 110 nM
3. 100 nM
4. 115 nM
5. 2000 nM
6. 2100 nM
7. 110 nM
